- Test system: RPMI 8226
- Assay protocol: Multiple myeloma cell growth inhibition, MTT, 72 h
- Type: cell-based
- Setup conditions: Homo sapiens
- Experimental: Multiple myeloma cell lines: RPMI8226 (multiple myeloma), purchased from Fuxiang Bio-tech Co. Ltd., Shanghai, China. 6000 well-growing cells were obtained and inoculated into wells of a 96-well cell culture plate. […] On the next day, the 1-oxo/acylated-14-acylated oridonin derivatives of different concentrations were added and mixed uniformly. […] Then the viable cell concentration was determined by MTT method.
So basically: is IC50 under 1 µg/mL? Then YES. Not under? Then NO.

Please review the entries below; each comes with its answer.
Molecule	Target	Class name
C=C1C(=O)[C@]23[C@H](O)[C@H]1CC[C@H]2[C@@]12CO[C@]3(O)[C@@H](O)[C@@H]1C(C)(C)CC[C@@H]2O	RPMI 8226	NO
C=C1C(=O)[C@]23[C@H](OC(=O)C4CCN(S(=O)(=O)c5ccccc5)CC4)[C@H]1CC[C@H]2[C@@]12CO[C@@]3(O)[C@@H](O)[C@@H]1C(C)(C)CCC2=O	RPMI 8226	NO
C=C1C(=O)[C@]23[C@H](OC(=O)c4ccc(C)cc4)[C@H]1CC[C@H]2[C@@]12CO[C@@]3(O)[C@@H](O)[C@@H]1C(C)(C)CCC2OC(C)=O (some centres unmarked)	RPMI 8226	YES
C=C1C(=O)[C@]23[C@H](OC(=O)C4CCN(S(=O)(=O)c5cccc([N+](=O)[O-])c5)CC4)[C@H]1CC[C@H]2[C@@]12CO[C@@]3(O)[C@@H](O)[C@@H]1C(C)(C)CCC2=O	RPMI 8226	NO

input: Confirm or reject: IC50 of C=C1C(=O)[C@]23[C@H](OC(=O)c4ccccc4Cl)[C@H]1CC[C@H]2[C@@]12CO[C@@]3(O)[C@@H](O)[C@@H]1C(C)(C)CCC2=O lies strictly below 1 µg/mL
output: YES

====

- System: RPMI 8226
- Assay protocol: Multiple myeloma cell growth inhibition, MTT, 72 h
- Format: cell-based
- Setup conditions: Homo sapiens
- Procedure: Multiple myeloma cell lines: RPMI8226 (multiple myeloma), purchased from Fuxiang Bio-tech Co. Ltd., Shanghai, China. 6000 well-growing cells were obtained and inoculated into wells of a 96-well cell culture plate. […] On the next day, the 1-oxo/acylated-14-acylated oridonin derivatives of different concentrations were added and mixed uniformly. […] Then the viable cell concentration was determined by MTT method.
Endpoint label: IC50 (µg/mL)
Answer format: numeric, µg/mL implied, no suffix.

Recorded IC50, per entry:
Compound	Unit name	IC50
C=C1C(=O)[C@]23[C@H](OC(=O)c4cccc(C)c4)[C@H]1CC[C@H]2[C@@]12CO[C@@]3(O)[C@@H](O)[C@@H]1C(C)(C)CCC2=O [BS-OR-008]	µg/mL	0.37
C=C1C(=O)[C@]23[C@H](OC(=O)c4ccc(OC)cc4)[C@H]1CC[C@H]2[C@@]12CO[C@@]3(O)[C@@H](O)[C@@H]1C(C)(C)CCC2=O [BS-OR-005]	µg/mL	0.26

Entry C=C1C(=O)[C@]23[C@H](OC(=O)c4cccnc4)[C@H]1CC[C@H]2[C@@]12CO[C@@]3(O)[C@@H](O)[C@@H]1C(C)(C)CCC2=O [BS-OR-011] , IC50 reported as 0.9

====

Let's look at some molecules and their measured IC90.
- Test system: A549
- Assay protocol: Solid tumor cell growth inhibition, MTT, 72 h
- Format: cell-based
- Setup conditions: Homo sapiens
- Method: 6000 well-growing human solid tumor cells were obtained and inoculated into wells of a 96-well cell culture plate. The culture medium was DMEM High Glucose cell culture medium containing 10% fetal bovine serum. The plate was placed in a carbon dioxide cell incubator (5% CO2) at 37° C. and incubated for 24 hours. […] Then the viable cell concentration was determined by MTT method.
Answer format: numeric, µg/mL implied, no suffix.

Molecule	Unit name	IC90
C=C1C(=O)[C@]23[C@H](OC(=O)c4ccccc4Br)[C@H]1CC[C@H]2[C@@]12CO[C@@]3(O)[C@@H](O)[C@@H]1C(C)(C)CCC2=O [BS-OR-020]	µg/mL	5.78
C=C1C(=O)[C@]23[C@H](OC(=O)C4CCN(S(=O)(=O)c5ccccc5[N+](=O)[O-])CC4)[C@H]1CC[C@H]2[C@@]12CO[C@@]3(O)[C@@H](O)[C@@H]1C(C)(C)CCC2=O [BS-OR-034]	µg/mL	11.9

C=C1C(=O)[C@]23[C@H](OC(=O)C4CCN(S(=O)(=O)c5cccc([N+](=O)[O-])c5)CC4)[C@H]1CC[C@H]2[C@@]12CO[C@@]3(O)[C@@H](O)[C@@H]1C(C)(C)CCC2=O [BS-OR-037] on A549 gives IC90 = 10.1

====

- Test system: MGC-803
- Assay protocol: Solid tumor cell growth inhibition, MTT, 72 h
- Format: cell-based, human
- Setup conditions: Homo sapiens, MGC-803; 72 h, MTT
Endpoint label: IC90 (µg/mL)
Answer format: numeric, µg/mL implied, no suffix.

Recorded IC90, per entry:
Compound	IC90 / µg/mL
C=C1C(=O)[C@]23[C@H](OC(=O)C4CCN(S(=O)(=O)CC)CC4)[C@H]1CC[C@H]2[C@@]12CO[C@@]3(O)[C@@H](O)[C@@H]1C(C)(C)CCC2=O [BS-OR-038]	9.55
C=C1C(=O)[C@]23[C@H](OC(=O)c4ccccc4Cl)[C@H]1CC[C@H]2[C@@]12CO[C@@]3(O)[C@@H](O)[C@@H]1C(C)(C)CCC2=O [BS-OR-003]	10.7

Entry C=C1C(=O)[C@]23[C@H](OC(=O)c4ccc(Cl)cc4)[C@H]1CC[C@H]2[C@@]12CO[C@@]3(O)[C@@H](O)[C@@H]1C(C)(C)CC[C@@H]2OC(C)=O [BS-OR-093] , IC90 reported as 6.73

Entry C=C1C(=O)[C@]23[C@H](OC(=O)c4ccccc4)[C@H]1CC[C@H]2[C@@]12CO[C@@]3(O)[C@@H](O)[C@@H]1C(C)(C)CCC2=O [BS-OR-001] , IC90 reported as 11

Entry C=C1C(=O)[C@]23[C@H](OC(=O)C4CCN(S(=O)(=O)c5cccc([N+](=O)[O-])c5)CC4)[C@H]1CC[C@H]2[C@@]12CO[C@@]3(O)[C@@H](O)[C@@H]1C(C)(C)CCC2=O [BS-OR-037] , IC90 reported as 6.35

Entry C=C1C(=O)[C@]23[C@H](OC(=O)c4ccc(OC)c(OC)c4)[C@H]1CC[C@H]2[C@@]12CO[C@@]3(O)[C@@H](O)[C@@H]1C(C)(C)CCC2=O [BS-OR-015] , IC90 reported as 4.68

Entry C=C1C(=O)[C@]23[C@H](OC(=O)C4CCN(S(=O)(=O)c5ccccc5[N+](=O)[O-])CC4)[C@H]1CC[C@H]2[C@@]12CO[C@@]3(O)[C@@H](O)[C@@H]1C(C)(C)CCC2=O [BS-OR-034] , IC90 reported as 8.83

Entry C=C1C(=O)[C@]23[C@H](OC(=O)c4ccc(OC)cc4)[C@H]1CC[C@H]2[C@@]12CO[C@@]3(O)[C@@H](O)[C@@H]1C(C)(C)CCC2OC(C)=O (some centres unmarked) [BS-OR-091] , IC90 reported as 5.7

Entry C=C1C(=O)[C@]23[C@H](OC(=O)c4cccs4)[C@H]1CC[C@H]2[C@@]12CO[C@@]3(O)[C@@H](O)[C@@H]1C(C)(C)CCC2=O [BS-OR-007] , IC90 reported as 9.79

Entry C=C1C(=O)[C@]23[C@H](OC(=O)c4ccc(Cl)cc4)[C@H]1CC[C@H]2[C@@]12CO[C@@]3(O)[C@@H](O)[C@@H]1C(C)(C)CCC2=O [BS-OR-010] , IC90 reported as 9.04

Entry C=C1C(=O)[C@]23[C@H](OC(=O)c4ccccc4Br)[C@H]1CC[C@H]2[C@@]12CO[C@@]3(O)[C@@H](O)[C@@H]1C(C)(C)CCC2=O [BS-OR-020] , IC90 reported as 8.86

Entry C=C1C(=O)[C@]23[C@H](OC(=O)c4ccncc4)[C@H]1CC[C@H]2[C@@]12CO[C@@]3(O)[C@@H](O)[C@@H]1C(C)(C)CCC2=O [BS-OR-012] , IC90 reported as 3.99

Entry C=C1C(=O)[C@]23[C@H](OC(=O)c4ccc(C)cc4)[C@H]1CC[C@H]2[C@@]12CO[C@@]3(O)[C@@H](O)[C@@H]1C(C)(C)CCC2=O [BS-OR-004] , IC90 reported as 4.88

Entry C=C1C(=O)[C@]23[C@H](O)[C@H]1CC[C@H]2[C@@]12CO[C@]3(O)[C@@H](O)[C@@H]1C(C)(C)CC[C@@H]2O [OR, Oridonin] , IC90 reported as 7.95

Entry C=C1C(=O)[C@]23[C@H](OC(=O)C4CC4)[C@H]1CC[C@H]2[C@@]12CO[C@@]3(O)[C@@H](O)[C@@H]1C(C)(C)CCC2=O [BS-OR-017] , IC90 reported as 4.16

Entry C=C1C(=O)[C@]23[C@H](OC(=O)C4CCC(NC(=O)c5ccccn5)CC4)[C@H]1CC[C@H]2[C@@]12CO[C@@]3(O)[C@@H](O)[C@@H]1C(C)(C)CCC2=O (some centres unmarked) [BS-OR-083] , IC90 reported as 5.57

These data points were gathered from patent US9902736B2.
